Counter-ions that a name gives are not always drawn.

compound	melting point
COc1ccc2c(-c3ccc(CNCCN(C)C)cc3)nc(-c3ccc(CNCCN(C)C)cc3)nc2c1 (as salt: (cooh)2)	234 to 236 °C
COc1ccc2cc(-c3ccc(CNCCCCN(C)C)cc3)nc(-c3ccc(CNCCCCN(C)C)cc3)c2c1 (as salt: (cooh)2)	157 to 159 °C
COc1ccc2c(-c3ccc(CNCCCCN4CCN(C)CC4)cc3)nc(-c3ccc(CNCCCCN4CCN(C)CC4)cc3)nc2c1 (as salt: (cooh)2)	222 to 224 °C
COc1ccc2cc(-c3ccc(CNCCCN(C)C)cc3)nc(-c3ccc(CNCCCN(C)C)cc3)c2c1 (as salt: (cooh)2)	178 to 180 °C
CN(C)CCCNCc1cccc(-c2cc(-c3cccc(CNCCCN(C)C)c3)c3ccccc3n2)c1 (as salt: (cooh)2)	243 to 245 °C
COc1ccc2c(-c3ccc(CNCCCN(C)C)cc3)nc(-c3ccc(CNCCCN(C)C)cc3)nc2c1 (as salt: (cooh)2)	223 to 225 °C
c1ccc2c(-c3ccc(CNCCCN4CCOCC4)cc3)nc(-c3ccc(CNCCCN4CCOCC4)cc3)nc2c1 (as salt: (cooh)2)	183 to 185 °C
COc1ccc2nc(-c3ccc(CNCCN4CCN(C)CC4)cc3)nc(-c3ccc(CNCCN4CCN(C)CC4)cc3)c2c1 (as salt: (cooh)2)	229 to 231 °C
CN1CCN(CCCNCc2cccc(-c3nc(-c4cccc(CNCCCN5CCN(C)CC5)c4)c4ccccc4n3)c2)CC1 (as salt: (cooh)2)	252 to 254 °C
CN1CCN(CCCCNCc2ccc(-c3cc4ccccc4c(-c4ccc(CNCCCCN5CCN(C)CC5)cc4)n3)cc2)CC1 (as salt: (cooh)2)	181 to 183 °C
COc1ccc2cc(-c3ccc(CNCCCN4CCN(C)CC4)cc3)nc(-c3ccc(CNCCCN4CCN(C)CC4)cc3)c2c1 (as salt: (cooh)2)	195 to 197 °C
CN(C)CCCCNCc1ccc(-c2cc(-c3ccc(CNCCCCN(C)C)cc3)c3ccccc3n2)cc1 (as salt: (cooh)2)	258 to 260 °C
c1cc(CNCCN2CCOCC2)cc(-c2nc(-c3cccc(CNCCN4CCOCC4)c3)c3ccccc3n2)c1 (as salt: (cooh)2)	234 to 236 °C
